meta.source: ChEMBL document CHEMBL4196004

test system: Rattus norvegicus; experiment: AUC (0 to infinity) in Sprague-Dawley rat at 30 mg/kg administered via oral gavage by HPLC analysis; type: ADME, organism-based; parameters: dose 30 mg/kg, route oral, time infinity; conditions: in vivo
Parameter: AUC (µg·h/mL)
Give the number; µg·h/mL is assumed, so skip it.

CC#C[C@]1(O)CC[C@H]2[C@@H]3CCC4=CC(=O)CCC4=C3[C@@H](c3ccc(N(C)C(=O)c4ccc(Cl)c(Cl)c4)cc3)C[C@@]21C : 2.91

Please look at the following molecule next.
# AUC (molecule: `CC#C[C@]1(O)CC[C@H]2[C@@H]3CCC4=CC(=O)CCC4=C3[C@@H](c3ccc(N(C)C)cc3)C[C@@]21C` ) is 2.42

----------
assay: Tmax in Sprague-Dawley rat at 30 mg/kg administered via oral gavage by HPLC analysis; format: ADME, organism-based; conditions: in vivo
Parameter: Tmax (h)
Give the number; h is assumed, so skip it.

CC#C[C@]1(O)CC[C@H]2[C@@H]3CCC4=CC(=O)CCC4=C3[C@@H](c3ccc(N(C)C(=O)c4ccc(Cl)c(Cl)c4)cc3)C[C@@]21C : 2.17

# Tmax (compound: CC#C[C@]1(O)CC[C@H]2[C@@H]3CCC4=CC(=O)CCC4=C3[C@@H](c3ccc(N(C)C)cc3)C[C@@]21C [MIFEPRISTONE] ) is 3.38

----------
Examples of molecules with documented half-life follow.
assay: Elimination half life in Sprague-Dawley rat at 30 mg/kg administered via oral gavage by HPLC analysis; format: ADME, organism-based; settings: in vivo, read-out: beta t1/2 (converted)
Give the number; h is assumed, so skip it.

CC#C[C@]1(O)CC[C@H]2[C@@H]3CCC4=CC(=O)CCC4=C3[C@@H](c3ccc(N(C)C(=O)c4ccc(Cl)c(Cl)c4)cc3)C[C@@]21C : 2.88

# half-life (molecule: CC#C[C@]1(O)CC[C@H]2[C@@H]3CCC4=CC(=O)CCC4=C3[C@@H](c3ccc(N(C)C)cc3)C[C@@]21C [MIFEPRISTONE] ) is 3.02

----------
test system: SUM149PT; test: Antiproliferative activity against human SUM149PT cells after 48 hrs by SRB assay; format: functional, cell-based
# label = met if IC50 < 9 µM else not met

CC#C[C@]1(O)CC[C@H]2[C@@H]3CCC4=CC(=O)CCC4=C3[C@@H](c3ccc(N(C)C(=O)c4cc(Cl)ccc4F)cc3)C[C@@]21C : not met
CC#C[C@]1(O)CC[C@H]2[C@@H]3CCC4=CC(=O)CCC4=C3[C@@H](c3ccc(N(C)C(=O)c4ccc(C)c(C)c4)cc3)C[C@@]21C : met
CC#C[C@]1(O)CC[C@H]2[C@@H]3CCC4=CC(=O)CCC4=C3[C@@H](c3ccc(N(C)C(=O)c4cnccn4)cc3)C[C@@]21C : not met

Say whether its IC50 is strictly beneath 9 µM. Entry: `CC#C[C@]1(O)CC[C@H]2[C@@H]3CCC4=CC(=O)CCC4=C3[C@@H](c3ccc(N(C)C(=O)c4ccc5ccccc5c4)cc3)C[C@@]21C`
met

Say whether its IC50 is strictly beneath 9 µM. Entry: `CC#C[C@]1(O)CC[C@H]2[C@@H]3CCC4=CC(=O)CCC4=C3[C@@H](c3ccc(N(C)C(=O)c4ccccc4OC)cc3)C[C@@]21C`
not met

Say whether its IC50 is strictly beneath 9 µM. Entry: `CC#C[C@]1(O)CC[C@H]2[C@@H]3CCC4=CC(=O)CCC4=C3[C@@H](c3ccc(N(C)C(=O)c4ccc(C(C)C)cc4)cc3)C[C@@]21C`
met

Say whether its IC50 is strictly beneath 9 µM. Entry: `CC#C[C@]1(O)CC[C@H]2[C@@H]3CCC4=CC(=O)CCC4=C3[C@@H](c3ccc(N(C)C(=O)c4ccccn4)cc3)C[C@@]21C`
not met

Say whether its IC50 is strictly beneath 9 µM. Entry: `CC#C[C@]1(O)CC[C@H]2[C@@H]3CCC4=CC(=O)CCC4=C3[C@@H](c3ccc(N(C)C(=O)c4ccc(Cl)cc4)cc3)C[C@@]21C`
not met

Say whether its IC50 is strictly beneath 9 µM. Entry: `CC#C[C@]1(O)CC[C@H]2[C@@H]3CCC4=CC(=O)CCC4=C3[C@@H](c3ccc(N(C)S(=O)(=O)c4ccc(C)cc4)cc3)C[C@@]21C`
not met
